This collection of values is drawn from patent US20210388087A1.

# testSystem: Human CD137 ECD (human)
# Sequence (chain, as listed by the source limits assumed): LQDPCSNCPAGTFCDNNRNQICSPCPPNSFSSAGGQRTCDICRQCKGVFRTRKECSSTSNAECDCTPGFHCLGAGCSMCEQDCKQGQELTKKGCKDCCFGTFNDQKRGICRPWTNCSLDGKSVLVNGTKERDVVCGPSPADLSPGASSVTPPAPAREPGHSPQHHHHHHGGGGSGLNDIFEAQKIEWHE
# assayProcedure: single mutant vs template dBBDu183H
measuredParameter: fold change of affinity (fold)
Just the number please, in fold, no unit attached.

Recorded fold change of affinity, per entry:
binder	numericResult
H183/L072 VH N53Q (antibody, name in Kabat numbering, V domains shown) VH: QVQLVESGGGLVQPGRSLRLSCAASGFTFSNAWMHWVRQAPGKGLEWVAQIKDKGQAYAAYYAPSVKGRFTISRDDSKNSIYLQMNSLKTEDTAVYYCHYVHYASASTVLPAFGVDAWGQGTTVTVSS VL: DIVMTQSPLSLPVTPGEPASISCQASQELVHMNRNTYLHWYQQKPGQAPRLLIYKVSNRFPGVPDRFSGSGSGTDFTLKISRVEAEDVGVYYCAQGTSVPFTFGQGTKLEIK	0
H183/L072 VH M34G (antibody, name in Kabat numbering, V domains shown) VH: QVQLVESGGGLVQPGRSLRLSCAASGFTFSNAWGHWVRQAPGKGLEWVAQIKDKGNAYAAYYAPSVKGRFTISRDDSKNSIYLQMNSLKTEDTAVYYCHYVHYASASTVLPAFGVDAWGQGTTVTVSS VL: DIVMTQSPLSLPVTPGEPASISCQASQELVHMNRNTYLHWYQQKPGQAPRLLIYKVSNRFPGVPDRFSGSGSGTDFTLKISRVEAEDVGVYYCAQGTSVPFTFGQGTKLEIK	0

Dear colleague, I am looking for the recorded fold change of affinity of the following binder: H183/L072 VH Y55R (antibody, name in Kabat numbering, V domains shown) VH: QVQLVESGGGLVQPGRSLRLSCAASGFTFSNAWMHWVRQAPGKGLEWVAQIKDKGNARAAYYAPSVKGRFTISRDDSKNSIYLQMNSLKTEDTAVYYCHYVHYASASTVLPAFGVDAWGQGTTVTVSS VL: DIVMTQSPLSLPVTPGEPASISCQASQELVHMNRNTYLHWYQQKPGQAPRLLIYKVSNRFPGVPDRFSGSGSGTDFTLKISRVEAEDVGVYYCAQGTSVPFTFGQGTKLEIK
0
